Reference for the values: PubChem BioAssay (NCI)

System: A549 NSCLC
experimental_protocol: NCI tumour cell line growth inhibition, 48 h
experimental_endpoint: GI50

Quick check: GI50 of C=C1C(=O)O[C@H]2[C@H]1CC(=O)/C(C)=C\CC[C@@]1(C)O[C@@H]21 ? 5.21 µg/mL

Look up GI50: Cc1[nH]nc(C(=O)Nc2n[nH]c3ccccc23)c1[N+](=O)[O-] > 66.6 µM

I'd like to know its GI50. The compound in question is c1ccc2c(c1)ccc1c3ccccc3ccc21 > 50 µM

Endpoint output: GI50 of COC1CCC(n2c([C@@H]3CCCC(=O)N3c3ccc(F)c(F)c3)nc3cc(-c4c(C)noc4C)ccc32)CC1 (stereo not given in full) . Value? 11.8 µM

Given C=C1C(=O)O[C@H]2[C@H]1CC/C(COC(=O)C(=O)c1cn(C)c3ccc(OC)cc13)=C\CC[C@@]1(C)O[C@@H]21 , state its recorded GI50. 7.61 µM
